target: KIT kinase (Homo sapiens (Human)); assay: Competition binding assay (Kd), KIT; conditions: competition binding assay
Sequence (P10721 26-976): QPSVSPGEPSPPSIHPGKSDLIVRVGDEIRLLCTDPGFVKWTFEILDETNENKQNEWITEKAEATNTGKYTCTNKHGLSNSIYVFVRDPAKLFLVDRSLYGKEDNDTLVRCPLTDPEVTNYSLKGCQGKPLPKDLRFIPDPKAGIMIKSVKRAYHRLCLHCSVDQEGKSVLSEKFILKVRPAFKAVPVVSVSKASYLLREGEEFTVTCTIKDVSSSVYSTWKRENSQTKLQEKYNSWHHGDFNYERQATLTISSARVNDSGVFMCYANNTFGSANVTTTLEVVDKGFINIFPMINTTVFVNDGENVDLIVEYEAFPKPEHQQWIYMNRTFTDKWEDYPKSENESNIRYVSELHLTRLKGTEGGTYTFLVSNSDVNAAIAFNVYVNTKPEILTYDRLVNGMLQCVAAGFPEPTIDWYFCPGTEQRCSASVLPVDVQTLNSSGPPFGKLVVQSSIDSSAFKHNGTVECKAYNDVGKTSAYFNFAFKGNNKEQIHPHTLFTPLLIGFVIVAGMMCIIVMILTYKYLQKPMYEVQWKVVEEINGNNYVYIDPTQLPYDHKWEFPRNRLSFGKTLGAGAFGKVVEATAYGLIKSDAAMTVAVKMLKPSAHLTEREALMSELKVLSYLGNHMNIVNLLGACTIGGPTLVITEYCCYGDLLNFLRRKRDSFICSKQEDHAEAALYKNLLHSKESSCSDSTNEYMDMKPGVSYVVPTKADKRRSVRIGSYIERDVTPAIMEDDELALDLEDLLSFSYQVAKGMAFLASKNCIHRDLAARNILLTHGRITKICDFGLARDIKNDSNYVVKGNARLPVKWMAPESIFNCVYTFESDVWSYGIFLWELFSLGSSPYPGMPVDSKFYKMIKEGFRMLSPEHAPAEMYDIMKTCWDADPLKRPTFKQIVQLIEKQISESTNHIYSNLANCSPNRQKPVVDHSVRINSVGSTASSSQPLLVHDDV
pKd: −log10 of the molar value.
readout: pKd

pKd reported for this molecule `COCCOc1cc2nc(-c3ccc(CC(=O)Nc4cc(C(C)(C)C)nn4C)c(F)c3)cnc2cc1OC` : > 8.30

Item: `COc1cc2nc(-c3ccc(CC(=O)Nc4cc(C5(C(F)(F)F)CC5)on4)c(F)c3)cnc2cc1Br` | pKd: > 8.30

`CN1CCN(C(=O)c2cc3cc(-c4ccc(CC(=O)Nc5cc(C(C)(C)C)on5)cc4)cnc3[nH]2)CC1` has a reported pKd of > 8.30

// field: pKd; key: `COc1cc2nc(-c3ccc(CC(=O)Nc4cc(C5(C(F)(F)F)CC5)on4)c(F)c3)cnc2cc1OC1COC1` ; value = > 8.30

Lab book: pKd of `Cn1cc(-c2n[nH]c3ncc(-c4ccc(CC(=O)Nc5cc(C(C)(C)C)on5)cc4)cc23)cn1` noted as > 8.30

Short answer for `COc1cc2nc(-c3ccc(CC(=O)Nc4cc(C5(C(F)(F)F)CC5)on4)c(F)c3)cnc2cc1OCCOC(=O)N(C)C` : pKd was 7.70 to 8.30

The molecule listed as `COc1cc2ncc(-c3ccc(CC(=O)Nc4cc(C(C)(C)C(F)(F)F)on4)c(F)c3)nc2cc1OCCO` shows pKd equal to > 8.30

Consider `COc1cc2nc(-c3ccc(CC(=O)Nc4cc(C5(C(F)(F)F)CC5)on4)c(F)c3)cnc2cc1O` . Its measured pKd is > 8.30

Entry `O=C(Cc1ccc(-c2cnc3[nH]c(CO)cc3c2)cc1F)Nc1cc(C2(C(F)(F)F)CC2)on1` , pKd reported as > 8.30

Lookup result for COc1cc2nc(-c3ccc(CC(=O)Nc4cc(C5(C(F)(F)F)CC5)on4)c(F)c3)cnc2cc1OCCN1CC(C)OC(C)C1 (stereo not shown) ; measured pKd: > 8.30

// pKd value for `O=C(Cc1ccc(-c2cnc3[nH]nc(OCCF)c3c2)cc1F)Nc1cc(C2(C(F)(F)F)CC2)on1` : > 8.30

Item: `COc1cc2nc(-c3ccc(CC(=O)Nc4cc(C5(C(F)(F)F)CC5)on4)c(F)c3)cnc2cc1OC1CNC1` | pKd: 7.70 to 8.30

// pKd value for `COc1cc2ncc(-c3ccc(CC(=O)Nc4cc(C5(C(F)(F)F)CC5)on4)c(F)c3)nc2cc1O` : > 8.30
